# Tested on: Cavia porcellus
# protocol-details: Compound was evaluated for the inhibition of leukotriene-mediated bronchoconstriction in guinea pig (in vivo)
# Type: functional
# cond: Lung
# ED50 per entry
metric: ED50 (mg/kg)

                                   compound   assayed_target  metric  observed_measurement
0  COCCC1CN(c2ccccc2)NC1=O (stereo in doubt; 1f)  Cavia porcellus    ED50                    62
1  CCSC1CN(c2ccccc2)NC1=O (stereo not given)  Cavia porcellus    ED50                    92
2  COCC1CN(c2ccccc2)NC1=O (stereo not given)  Cavia porcellus    ED50                    25
3                       O=C1CCN(c2ccccc2)N1  Cavia porcellus    ED50                    69
4   NC1=NN(c2cccc(C(F)(F)F)c2)CC1 [BW-755C]  Cavia porcellus    ED50                   300

Data credit: ChEMBL document CHEMBL1125687
